target: NR4A1 protein (ligand-binding domain: LBD) (Homo sapiens); assay: Isothermal titration calorimetry (ITC) binding assay
pKd: −log10 of the molar value.
readout_name: pKd

compound="O=c1cc(-c2ccccc2)oc2cc(O)ccc12 [7-Hydroxyflavone]" readout_name=pKd result_number=7.38

----------
Each entry below carries its recorded ITC assay ΔG.
target: NR4A1 protein (ligand-binding domain: LBD) (Homo sapiens, UniProt P22736); test: Isothermal titration calorimetry (ITC) binding assay; details: 25 °C;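 further: ligand titrated into 20 µmol/L NR4A1 LBD in sodium phosphate buffer pH 7.4 with glycerol and ethanol, thirty injections, heat flow corrected for ligand-into-buffer dilution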
Sequence (P22736 360-595 limits assumed): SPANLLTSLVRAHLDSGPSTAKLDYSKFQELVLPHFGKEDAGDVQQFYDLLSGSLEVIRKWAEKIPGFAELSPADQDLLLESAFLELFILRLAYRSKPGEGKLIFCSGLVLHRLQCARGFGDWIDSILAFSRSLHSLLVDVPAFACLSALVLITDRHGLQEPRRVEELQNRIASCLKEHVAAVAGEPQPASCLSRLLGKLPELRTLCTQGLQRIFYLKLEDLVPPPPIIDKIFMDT
readout_name: ITC assay ΔG (kcal/mol)

compound="O=c1cc(-c2ccc(O)c(O)c2)oc2cc(O)cc(O)c12 [5,7,3′4′-Tetrahydroxyflavone (Luteolin), 5,7,3′4′-Tetrahydroxyflavone]" result_number=-10.5
compound="O=c1cc(-c2cccc(O)c2)oc2cc(O)ccc12 [7,3′-Dihydroxyflavone]" result_number=-9.25
compound="O=c1cc(-c2ccc(O)c(O)c2)oc2ccccc12 [3′,4′-Dihydroxyflavone]" result_number=-6.86
compound="O=c1cc(-c2ccccc2)oc2ccc(O)cc12 [6-Hydroxyflavone]" result_number=-10.3
compound="O=c1cc(-c2ccccc2)oc2ccccc12 [Flavone]" result_number=-9.73
compound="O=c1c(O)c(-c2ccccc2)oc2cc(O)cc(O)c12 [3,5,7 -Trihydroxyflavone (Galangin), 3,5,7-Trihydroxyflavone]" result_number=-12.2
compound="O=c1c(O)c(-c2ccc(O)cc2)oc2cc(O)cc(O)c12 [3,5,7,4′-Tetrahydroxyflavone]" result_number=-5.47
compound="O=c1cc(-c2ccc(O)cc2)oc2cc(O)ccc12 [7,4’-Dihydroxyflavone]" result_number=-8.63
compound="O=c1cc(-c2ccccc2)oc2cc(O)c(O)c(O)c12 [5,6,7 -Trihydroxyflavone (Baicalein), 5,6,7-Trihydroxyflavone]" result_number=-9.42
compound="O=c1cc(-c2ccc(O)cc2)oc2ccccc12 [4′-Hydroxyflavone]" result_number=-9.42
compound="O=c1cc(-c2ccc(O)cc2)oc2cc(O)cc(O)c12 [5,7,4′-Trihydroxyflavone (Apigenin), 5,7,4′-Trihydroxyflavone]" result_number=-8.53
compound="O=c1cc(-c2ccccc2)oc2cccc(O)c12 [5-Hydroxyflavone]" result_number=-6.45
compound="O=c1cc(-c2ccccc2)oc2c(O)c(O)ccc12 [7,8-Dihydroxyflavone]" result_number=-10.1
compound="O=c1c(O)c(-c2ccccc2)oc2ccc(O)cc12 [3,6-Dihydroxyflavone]" result_number=-4.57
compound="O=c1cc(-c2ccccc2)oc2cc(O)cc(O)c12 [5,7 Dihydroxyflavone]" result_number=-12.3
compound=O=c1c(O)c(-c2ccc(O)c(O)c2)oc2cc(O)cc(O)c12 result_number=-8.8
compound="O=c1cc(-c2cccc(O)c2)oc2ccccc12 [3′-Hydroxyflavone]" result_number=-8.84
compound="O=c1cc(-c2ccccc2)oc2cc(O)ccc12 [7-Hydroxyflavone]" result_number=-10.1
compound="O=c1c(O)c(-c2ccccc2)oc2ccccc12 [3-Hydroxyflavone]" result_number=-10.4
compound="O=c1c(O)c(-c2ccccc2)oc2cc(O)ccc12 [3,7-Dihydroxyflavone]" result_number=-9.2

Where do the numbers come from? From paper PMC10179475.
